Assayed system: hNTS2 (Homo sapiens, UniProt O95665)
Construct: expressed in transfected cells; host or cells: CHO-K1
Sequence (O95665 whole entry): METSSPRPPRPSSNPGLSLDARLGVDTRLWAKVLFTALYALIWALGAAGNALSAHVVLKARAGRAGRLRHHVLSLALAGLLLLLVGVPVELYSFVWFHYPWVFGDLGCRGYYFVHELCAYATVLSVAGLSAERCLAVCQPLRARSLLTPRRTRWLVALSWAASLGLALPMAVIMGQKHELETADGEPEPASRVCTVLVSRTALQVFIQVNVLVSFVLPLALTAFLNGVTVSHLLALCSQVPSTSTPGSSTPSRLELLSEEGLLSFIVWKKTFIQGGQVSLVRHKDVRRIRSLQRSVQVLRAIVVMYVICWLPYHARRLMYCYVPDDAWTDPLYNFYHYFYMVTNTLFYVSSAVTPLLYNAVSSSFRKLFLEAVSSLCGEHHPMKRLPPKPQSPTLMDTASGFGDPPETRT
Assay name: Radioligand competition binding with [3H]NT, membranes of CHO-K1 cells expressing hNTS2
Test context: Table 4
Where a SMILES comes first, the peptide text is derived from it. [ ]: non-standard residue; d: D form. Ala(indol-4-yl) = N[C@@H](Cc1cccc2[nH]ccc12)C(=O)O; NMeR = CN[C@@H](CCCNC(=N)N)C(=O)O; Tle = CC(C)(C)[C@H](N)C(=O)O
Property name: hNTS2 Selectivity
Give bare numbers.

Entry CN[C@@H](CCCNC(=N)N)C(=O)N[C@@H](CCCCN)C(=O)N1CCC[C@H]1C(=O)N[C@@H](Cc1cccc2[nH]ccc12)C(=O)N[C@H](C(=O)N[C@@H](CC(C)C)C(=O)O)C(C)(C)C [NT69L] (H-[NMeR]KP[Ala(indol-4-yl)][Tle]L-OH; C-terminus assumed) , hNTS2 Selectivity reported as 1.5

----------
Hi there, I'd appreciate the recorded Kd for every entry that follows.
Assayed system: hNTS2 (Homo sapiens)
Construct: expressed in transfected cells; host or cells: CHO-K1
Assay name: Radioligand competition binding with [3H]NT, membranes of CHO-K1 cells expressing hNTS2
Test context: Table 2; read-out: hNTS2 Geometric Mean ∀ SEM (equilibrium dissociation constant Kd)
Where a SMILES comes first, the peptide text is derived from it. [ ]: non-standard residue; d: D form. Tle = CC(C)(C)[C@H](N)C(=O)O; dOrn = NCCC[C@@H](N)C(=O)O; Orn = NCCC[C@H](N)C(=O)O; Dab = NCC[C@H](N)C(=O)O
One number for each entry, in nM.

Example entries and their recorded answers appear below.
CC[C@H](C)[C@H](NC(=O)[C@H](Cc1ccc(O)cc1)NC(=O)[C@@H]1CCCN1C(=O)[C@H](CCCNC(=N)N)NC(=O)[C@@H](N)CCN)C(=O)N[C@@H](CC(C)C)C(=O)O [NT29, [DAB^8]NT(8-13)] (H-[Dab]RPYIL-OH; N-terminus and C-terminus assumed)
6.5
CC[C@H](C)[C@H](NC(=O)[C@H](Cc1ccc(O)cc1)NC(=O)[C@@H]1CCCN1C(=O)[C@H](CCCN)NC(=O)[C@@H](N)CCCNC(=N)N)C(=O)N[C@@H](CC(C)C)C(=O)O [NT23, [L-Orn^9]NT(8-13)] (H-R[Orn]PYIL-OH; N-terminus and C-terminus assumed)
1.5

Reported Kd ( CC(C)C[C@H](NC(=O)[C@@H](NC(=O)[C@H](Cc1c[nH]c2ccccc12)NC(=O)[C@@H]1CCCN1C(=O)[C@@H](CCCN)NC(=O)[C@@H](N)CCCNC(=N)N)C(C)(C)C)C(=O)O [NT77T, [D-Orn^9,L-Trp^11,tert-Leu^12]NT(8-13)] (H-R[dOrn]PW[Tle]L-OH; N-terminus and C-terminus assumed) ) = 320

----------
Assayed system: hNTS2 (Homo sapiens, UniProt O95665)
Construct: expressed in transfected cells; host or cells: CHO-K1
Assay name: Radioligand competition binding with [3H]NT, membranes of CHO-K1 cells expressing hNTS2
Test context: Table 4
Where a SMILES comes first, the peptide text is derived from it. [ ]: non-standard residue; d: D form. Ala(indol-4-yl) = N[C@@H](Cc1cccc2[nH]ccc12)C(=O)O; d1Nal = N[C@H](Cc1cccc2ccccc12)C(=O)O; NMeR = CN[C@@H](CCCNC(=N)N)C(=O)O; Tle = CC(C)(C)[C@H](N)C(=O)O; dOrn = NCCC[C@@H](N)C(=O)O
Property name: hNTS2 Selectivity
Numbers only.

CN[C@@H](CCCNC(=N)N)C(=O)N[C@@H](CCCNC(=N)N)C(=O)N1CCC[C@H]1C(=O)N[C@H](Cc1cccc2ccccc12)C(=O)N[C@H](C(=O)N[C@@H](CC(C)C)C(=O)O)C(C)(C)C [NT79] (H-[NMeR]RP[d1Nal][Tle]L-OH; C-terminus assumed)
82
CC(C)C[C@H](NC(=O)[C@@H](NC(=O)[C@H](Cc1cccc2[nH]ccc12)NC(=O)[C@@H]1CCCN1C(=O)[C@@H](CCCN)NC(=O)[C@@H](N)CCCNC(=N)N)C(C)(C)C)C(=O)O [NT77] (H-R[dOrn]P[Ala(indol-4-yl)][Tle]L-OH; N-terminus and C-terminus assumed)
3.3
CC(C)C[C@H](NC(=O)[C@@H](NC(=O)[C@H](Cc1cccc2[nH]ccc12)NC(=O)[C@@H]1CCCN1C(=O)[C@H](CCCNC(=N)N)NC(=O)[C@H](N)CCCCN)C(C)(C)C)C(=O)O [NT66L] (H-[dK]RP[Ala(indol-4-yl)][Tle]L-OH; N-terminus and C-terminus assumed)
2

Log: hNTS2 (Homo sapiens, UniProt O95665), compound CC(C)C[C@H](NC(=O)[C@@H](NC(=O)[C@H](Cc1cccc2[nH]ccc12)NC(=O)[C@@H]1CCCN1C(=O)[C@H](CCCNC(=N)N)NC(=O)[C@@H](N)CCCNC(=N)N)C(C)(C)C)C(=O)O [NT65, [neo-Trp^11,tert-Leu^12]NT(8-13)] (H-RRP[Ala(indol-4-yl)][Tle]L-OH; N-terminus and C-terminus assumed) , hNTS2 Selectivity = 1.7
